Test: partition coefficient octanol/water at pH 7.4 (logD(7.4))
Assay type: physicochemical
readout-type: logD

Any idea what its logD is? The compound is CS(=O)(=O)NC(=O)CC(NC(=O)CNC(=O)CCCCNc1ccccn1)c1ccc(-c2ccccc2)cc1 (stereo not drawn) -0.38

Consider the compound O=C(CNC(=O)NCCCNc1ccccn1)NC(Cc1nnn[nH]1)c1ccc(-c2ccccc2)cc1 (stereo not drawn) and give its measured logD. 6.19

// returns reported logD for input O=C(CCCCNc1ccccn1)NCC(=O)NC(Cc1nnn[nH]1)c1ccc(-c2ccccc2)cc1 (stereo not drawn) 6.52

From: patent US20040157902A1
